- Test system: 252836-082-R-J2-PDC tumor spheroids, viability;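 further: spheroids exposed to agents for seven days before readout; percent of vehicle DMSO control viability so 100% = untreated growth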
- Test Description: Anticancer human tumor 252836-082-R-J2-PDC patient-derived head and neck squamous cell carcinoma cell line growth inhibition [PI3K]
- Condition Details: compound 0.1 µM; hits give low values; spheroids with HUVEC and MSC
Readout Kind: viability, T/C

Worked examples follow.
>>> measured("C[C@@H](NC(=O)c1ncnc(N)c1Cl)c1ncc(C(=O)Nc2cc(C(F)(F)F)c(Cl)cn2)s1")
"93% [middle of 4 runs]"
>>> measured("CC(Nc1ncnc2nc[nH]c12)c1cc2cccc(Cl)c2c(=O)n1-c1ccccc1 (centres undefined)")
"95.5% [middle of 8 runs]"
>>> measured("CNC(=O)c1ccc(N2C(=S)N(c3ccc(C#N)c(C(F)(F)F)c3)C(=O)C2(C)C)cc1F")
"92.5% [middle of 4 runs]"

Continue with the next compound.
Data request: Suppose we examine the compound C=CC(=O)N1CCN(c2nc(=O)n(-c3c(C)ccnc3C(C)C)c3nc(-c4c(O)cccc4F)c(F)cc23)C(C)C1 (centres undefined) ; what viability, T/C value has been reported?
Data returned: 95.6% [middle of 4 runs]
